# System: monocytes
# Assay details: Stimulation of monocytic cells; Interleukin-1 (IL-1) test on supernatants/lysates (mouse thymocyte co-mitogenic assay)
# Assay type: cell-based, human
# Condition set: adherent blood monocytes cultured 24 or 48 hours with test product
Counter-ions that a name gives are not always drawn.
Property measured: stimulation of monocytes and their IL-1 production

Compound	Reported
C=C(CC(NC(=O)CC[C@@H](N)C(=O)O)C(=O)O)CC(NC(=O)[C@H](C)N)C(=O)O (stereo partly shown) [Example 2]	stimulated
C=C(CC(N)C(=O)O)CC(NC(=O)CC[C@@H](N)C(=O)O)C(=O)O (stereo partly shown) [Example 1]	stimulated
C=C(CC(N)C(=O)O)CC(NC(=O)CC[C@@H](NC(=O)CCCCCCCCCCCCCCCCC)C(=O)O)C(=O)O (stereo partly shown) [Example 9]	stimulated
C=C(CC(N)C(=O)O)CC(NC(=O)CC[C@@H](NC(=O)[C@H](C)NC(=O)CCCCCCCCCCCCCCCCC)C(=O)O)C(=O)O (stereo partly shown) [Example 8, tri sodium salt]	stimulated

This collection of values is drawn from patent US5108990A.
